Tested on: Gardner lymphosarcoma (GLS)
protocolSummary: Transplanted tumor growth inhibition in mice, Gardner lymphosarcoma (GLS)
Assay type: in vivo
conditionSummary: Mus musculus, 264 h, 0.125 mg/kg × 10 days, measured at 11 days, read-out: Percent Inhibition (of tumor growth), 11 days

compound	inhibition in vivo at 0.125 mg/kg [%]
CCC1(O)CC2CN(CCc3c([nH]c4ccccc34)C(C(=O)OC)(c3cc4c(cc3OC)N(C)C3C(O)(C(=O)NNCCOC(C)=O)C(O)C5(CC)C=CCN6CCC43C65)C2)C1 (centres unmarked)	26
CCCC(=O)NNC(=O)C1(O)C(O)C2(CC)C=CCN3CCC4(c5cc(C6(C(=O)OC)CC7CN(CCc8c6[nH]c6ccccc86)CC(O)(CC)C7)c(OC)cc5N(C)C14)C32 (centres unmarked)	100
CCC1(O)CC2CN(CCc3c([nH]c4ccccc34)C(C(=O)OC)(c3cc4c(cc3OC)N(C)C3C(O)(C(=O)NNC)C(O)C5(CC)C=CCN6CCC43C65)C2)C1 (centres unmarked)	53
CCC1(O)CC2CN(CCc3c([nH]c4ccccc34)C(C(=O)OC)(c3cc4c(cc3OC)N(C)C3C(O)(C(=O)NNCCO)C(O)C5(CC)C=CCN6CCC43C65)C2)C1 (centres unmarked)	37
CCC1(O)CC2CN(CCc3c([nH]c4ccccc34)C(C(=O)OC)(c3cc4c(cc3OC)N(C)C3C(O)(C(=O)NNC(C)=O)C(O)C5(CC)C=CCN6CCC43C65)C2)C1 (centres unmarked)	93
CCC1(O)CC2CN(CCc3c([nH]c4ccccc34)C(C(=O)OC)(c3cc4c(cc3OC)N(C)C3C(O)(C(=O)NNC(=O)c5ccccc5)C(O)C5(CC)C=CCN6CCC43C65)C2)C1 (centres unmarked)	45
CCC1(O)CC2CN(CCc3c([nH]c4ccccc34)C(C(=O)OC)(c3cc4c(cc3OC)N(C)C3C(O)(C(=O)NN(C)C)C(O)C5(CC)C=CCN6CCC43C65)C2)C1 (centres unmarked)	93
C=NNC(=O)C1(O)C(O)C2(CC)C=CCN3CCC4(c5cc(C6(C(=O)OC)CC7CN(CCc8c6[nH]c6ccccc86)CC(O)(CC)C7)c(OC)cc5N(C)C14)C32 (centres unmarked)	91
